biological target: T1, PDLoneECDHisCtag (human, UniProt Q9NZQ7 19-238); assay: BLI cross-block, second antibody on PDLoneECDHisCtag held by immobilised 516; plain = non-blocking
T1 construct: Expressed in HEK-293F cells; theoretical molecular weight 29 kDa; also called recombinant human PD-L1 ECD; human PD-L1 (BLI); not shown: C-terminal His-tag; C-tag
T1 sequence (Q9NZQ7 19-238, form in doubt): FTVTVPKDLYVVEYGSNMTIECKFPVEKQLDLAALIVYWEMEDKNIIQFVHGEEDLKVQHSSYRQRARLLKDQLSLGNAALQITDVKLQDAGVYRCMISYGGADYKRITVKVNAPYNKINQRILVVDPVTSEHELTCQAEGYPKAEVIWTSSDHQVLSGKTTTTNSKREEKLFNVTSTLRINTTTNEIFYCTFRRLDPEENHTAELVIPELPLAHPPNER
readout_name: association response of the second antibody (nm)
Only the number, expressed in nm, is required.

[[record]]
binder = "IgG1-547-FEAR (antibody, V domains shown) VH: EVQLLEPGGGLVQPGGSLRLSCEASGSTFSTYAMSWVRQAPGKGLEWVSGFSGSGGFTFYADSVRGRFTISRDSSKNTLFLQMSSLRAEDTAVYYCAIPARGYNYGSFQHWGQGTLVTVSS VL: SYVLTQPPSVSVAPGQTARITCGGNNIGSKSVHWYQQKPGQAPVLVVYDDNDRPSGLPERFSGSNSGNTATLTISRVEAGDEADYYCQVWDSSSDHVVFGGGTKLTVLG"
readout_number = 0.8

[[record]]
binder = "IgG1-511-LC33S-FEAR (antibody, V domains shown) VH: QVQLVQSGSELKKPGASVMVSCKASGYTFTSYVMNWVRQAPGQGLEWMGWINSYTGNPTSAQGFTGRFVFSFDTSVNTAYLQISSLKAEDTAVYYCARGYCTSTSCYLDYWGQGTLVTVSS VL: SYELTQPPSVSVSPGHTARITCSGDALPKKYASWFQQKSGQAPVLVIYEDSKRPSGIPERFSGSTSGTMATLTISGAQVEDETDYYCYSADTSGTHRVFGGGTKLTVLG"
readout_number = 1.1


Okay, next one:
Which association response of the second antibody reading was recorded for the binder IgG1-632-FEAR (antibody, V domains shown) VH: QVQLVESGGGLVKPGGSLRLSCAASGFTFSDYYMSWIRQAPGKGLEWVSYIGSSSNTIYYADSVKGRFTISRDNAKNSLYLQMNSLRAEDTAVYSCARDRVKYGSPGSLFDYWGQGTLVTVSS VL: SYELTQPPSVSVSPGQTARITCSGDALPKKYAFWYQQKSGQAPVLVIYEDSKRPSGIPERFSGSSSGTMATLTISGAQVEDEADYYCYSTASSGDHRVFGGGTKLTVL ?
1.1
